Test system: S. aureus ATCC 29213
Test: Inhibition zone, paper disk/agar diffusion; also: test concentration or dose not given here
Assay type: cell-based
Settings: S. aureus; Na = no activity
propertyName: Mean Diameter of the Inhibition Zone (mm)
Unit mm implied. Number only.

Answered examples (3):
N#Cc1c(-c2ccc(Cl)cc2)c(C#N)c(=O)n(-c2ccc(S(=O)(=O)NC(=N)N)cc2)c1N | 25
N#CCC(=O)Nc1ccc(S(=O)(=O)NC(=N)N)cc1 | 17
COc1ccc(-c2c(C(=O)Nc3ccc(S(=O)(=O)NC(=N)N)cc3)c(N)[nH]c(=O)c2C#N)cc1 | 16

Could you share what Mean Diameter of the Inhibition Zone was measured for "N#CC(=Cc1ccc(Cl)cc1)C(=O)Nc1ccc(S(=O)(=O)NC(=N)N)cc1" , tested on S. aureus ATCC 29213?
25

Do the same for "COc1ccc(-c2c(C#N)c(N)n(-c3ccc(S(=O)(=O)NC(=N)N)cc3)c(=O)c2C#N)cc1O" please
23

Do the same for "COc1ccc(-c2c(C(=O)Nc3ccc(S(=O)(=O)NC(=N)N)cc3)c(N)n(C3CCCCC3)c(=O)c2C#N)cc1" please
24
